target-entity: HLA-A*02:03
assay-comment: IEDB peptide-MHC binding, purified MHC/competitive/radioactivity; filed as Kd, often an IC50 or EC50 that approximates it; bounds were set here for any values at or beyond the usual limits of such assays
test-conditions: source organism: Homo sapiens
assay-endpoint: pKd
Answers are plain numbers, as −log10 of the molar value.

For reference, reported pKd for `ALEAKIAQL` stands at 7.33

====

target-entity: HLA-A*02:06
assay-comment: IEDB peptide-MHC binding, purified MHC/competitive/radioactivity; filed as Kd, often an IC50 or EC50 that approximates it; bounds were set here for any values at or beyond the usual limits of such assays
test-conditions: source organism: Dengue virus 3 Martinique/1243/1999
assay-endpoint: Kd (nM)
Give bare numbers, in nM.

// worked examples, Kd included
VVVGDIIGV	4.38
IMTIDLDPV	34.8

Below: the item to evaluate.
The value of Kd recorded for `ILAGVSLLPV` when tested on HLA-A*02:06 reads 1.59
